system: M14 melanoma; experiment: NCI-60 one-dose screen, 48 h; conditions: 10 µM unless noted
Compounds without any hit were thinned out: in the full panel of roughly 83,000, 20% have a hit. Activity calls are given as the source filed them. How the source made its calls: active means growth percent below 10; inactive means the rest.
Pick from Y = active, N = inactive when you respond.

For orientation, consider the following solved cases.
{"compound": "C[C@]1(O)CC(=O)[C@]2(O)C3=C(C=C[C@]2(O)C1)C(=O)c1c(O)cccc1C3=O", "targetDesc": "M14 melanoma", "className": "Y"}
{"compound": "Cn1c2c(c3ccc(Cl)c(Cl)c31)C(C#N)C(C)(C)NC2=O (stereo not drawn)", "targetDesc": "M14 melanoma", "className": "N"}
{"compound": "CC[C@]12C=CCN3CC[C@@]4(c5ccc(OC)cc5N(C)[C@H]4[C@@](O)(C(=O)OC)[C@@H]1OC(=O)CCC[P+](c1ccccc1)(c1ccccc1)c1ccccc1)[C@@H]32", "targetDesc": "M14 melanoma", "className": "N"}

In: Kindly provide the recorded test outcome for the following compound: CC1=C(C(=O)Nc2ccccc2)C(c2ccc3c(c2)OCO3)NC(=S)N1 (stereo not drawn)
Out: N

In: Record request — test call for `O=S(=O)(NCCCNc1nccc(-c2c(-c3cccc(F)c3)nc3occn23)n1)c1ccc(F)cc1`
Out: N

In: What was the test verdict on `CCN1CCN(c2cc(C)nc(N(CCNc3ccnc4cc(Cl)ccc34)Cc3ccc4c(c3)OCO4)n2)CC1` ?
Out: Y

In: Please let me know the test result on file for `CCn1cc(CNc2ccc(C(=O)Nc3cc4cc(OC)c(OC)cc4c(C)n3)cc2)cn1` .
Out: N

In: Name the outcome recorded for N#CC1=C(N)Oc2ccc3ccccc3c2C1c1ccc([N+](=O)[O-])cc1 (stereo not drawn) in the assay.
Out: N

Cited source for all entries: PubChem BioAssay (NCI)
